compounds and their reported GI50
- Test system: MCF7
- testName: Antiproliferative activity against human p53+/- MCF7 cells after 48 hrs by SRB assay
- Type: functional
- protocolConditions: MCF7, 48 h
Entry format: amount then unit.

Worked examples follow.
>  <lineNotation>
O=C1C(=O)N(CCCNc2ccnc3cc(C(F)(F)F)ccc23)c2cc(Br)ccc21

>  <observed>
7.98 µM

$$$$
>  <lineNotation>
O=C1C(=O)N(CCCNc2ccnc3cc(C(F)(F)F)ccc23)c2ccccc21

>  <observed>
45.3 µM

$$$$
>  <lineNotation>
O=C1C(=O)N(CCCNc2ccnc3cc(C(F)(F)F)ccc23)c2cccc(Br)c21

>  <observed>
34.4 µM

$$$$
>  <lineNotation>
O=C1C(=O)N(CCCNc2ccnc3cc(Cl)ccc23)c2ccccc21

>  <observed>
23.5 µM

$$$$
>  <lineNotation>
Clc1ccc2c(NCCCN3CCCCC3)ccnc2c1

>  <observed>
17.7 µM

$$$$
>  <lineNotation>
FC(F)(F)c1ccc2c(NCCCN3CCN(c4ccnc5cc(C(F)(F)F)ccc45)CC3)ccnc2c1

>  <observed>
17.2 µM

$$$$
>  <lineNotation>
O=C1C(=O)N(CCCNc2ccnc3cc(Cl)ccc23)c2cc(Cl)ccc21

>  <observed>
7.36 µM

$$$$
>  <lineNotation>
O=C1C(=O)N(CCCNc2ccnc3cc(Cl)ccc23)c2cc(Br)ccc21

>  <observed>
16.6 µM

$$$$

Challenge: Input CN1CCN(CCCNc2ccnc3cc(Cl)ccc23)CC1 , output reported GI50.
Response given: 17.1 µM

Challenge: Input FC(F)(F)c1ccc2c(NCCCN3CCN(c4ccccc4)CC3)ccnc2c1 , output reported GI50.
Response given: 8.75 µM

###

compounds and their reported GI50 at 48 h
- testName: Antiproliferative activity against human MCF10A cells after 48 hrs by SRB assay
- Assay type: cell-based, MCF-10A
Entry format: amount then unit.

>  <lineNotation>
O=C1C(=O)N(CCCNc2ccnc3cc(Cl)ccc23)c2cc(Cl)ccc21

>  <GI50 at 48 h>
6.88 µM

$$$$
>  <lineNotation>
O=C1C(=O)N(CCCNc2ccnc3cc(Cl)ccc23)c2cc(Br)ccc21

>  <GI50 at 48 h>
19.9 µM

$$$$
>  <lineNotation>
CN1CCN(CCCNc2ccnc3cc(Cl)ccc23)CC1

>  <GI50 at 48 h>
16.7 µM

$$$$

Challenge: Input Clc1ccc2c(NCCCN3CCN(c4ccnc5cc(Cl)ccc45)CC3)ccnc2c1 , output reported GI50 at 48 h.
Response given: 8.72 µM

Challenge: Input CCN(CC)CCCNc1ccnc2cc(C(F)(F)F)ccc12 , output reported GI50 at 48 h.
Response given: 45.8 µM

Challenge: Input FC(F)(F)c1ccc2c(N3CCN(CCCNc4ccnc5cc(Cl)ccc45)CC3)ccnc2c1 , output reported GI50 at 48 h.
Response given: 12.9 µM

###

molecules and their reported GI50 at 48 h
- testName: Antiproliferative activity against human MCF10A cells after 48 hrs by SRB assay
- Type: cell-based, MCF-10A
Lab book: enter the figure in µM, no units written.

Worked examples follow.
>  <molecule>
O=C1C(=O)N(CCCNc2ccnc3cc(Cl)ccc23)c2cccc(Br)c21

>  <observed>
20.8

$$$$
>  <molecule>
CCN(CC)CCCC(C)Nc1ccnc2cc(Cl)ccc12 (stereo not given)

>  <observed>
81.3

$$$$
>  <molecule>
O=C1C(=O)N(CCCNc2ccnc3cc(Cl)ccc23)c2ccccc21

>  <observed>
35.9

$$$$
>  <molecule>
FC(F)(F)c1ccc2c(NCCCN3CCCCC3)ccnc2c1

>  <observed>
48.8

$$$$
>  <molecule>
FC(F)(F)c1ccc2c(NCCCN3CCN(c4ccccc4)CC3)ccnc2c1

>  <observed>
19.8

$$$$
>  <molecule>
Clc1ccc2c(NCCCN3CCOCC3)ccnc2c1

>  <observed>
86.5

$$$$
>  <molecule>
FC(F)(F)c1ccc2c(NCCCN3CCN(c4ccnc5cc(Cl)ccc45)CC3)ccnc2c1

>  <observed>
8.84

$$$$
>  <molecule>
O=C1C(=O)N(CCCNc2ccnc3cc(Cl)ccc23)c2cccc(Cl)c21

>  <observed>
84.8

$$$$

Challenge: Input FC(F)(F)c1ccc2c(NCCCN3CCOCC3)ccnc2c1 , output reported GI50 at 48 h.
Response given: 26.5

Challenge: Input FC(F)(F)c1ccc2c(NCCCN3CCCC3)ccnc2c1 , output reported GI50 at 48 h.
Response given: 58.6
